- Assay Name: Solubility screen
- Format: physicochemical
- Run Parameters: aqueous buffer, kinetic from dmso stock; 100 mM phosphate buffer, pH 7.4, 1% DMSO; read-out: solubility (solubility screening)
Measured Attribute: solubility

Molecule: CC(=O)NC1C(OCc2cc(F)cc(F)c2)CC(O)(C(=O)O)OC1C(O)C(O)CO (stereo not drawn)
Value Measured: > 95 µM

Molecule: CC(=O)NC1C(OCc2cc(Br)cc(Br)c2)CC(O)(C(=O)O)OC1C(O)C(O)CO (stereo not drawn)
Value Measured: > 95 µM

Molecule: CC(=O)NC1C(OCc2ccccc2)CC(O)(C(=O)O)OC1C(O)C(O)CO (stereo not drawn)
Value Measured: > 95 µM
